Biological target: T1, Cynomolgus CD3εδ Fc heterodimer (Cy CD3ε Fc / CD3δ Fc-HIS) (cynomolgus, UniProt Q95LI8 22-100)
T1 chain 1: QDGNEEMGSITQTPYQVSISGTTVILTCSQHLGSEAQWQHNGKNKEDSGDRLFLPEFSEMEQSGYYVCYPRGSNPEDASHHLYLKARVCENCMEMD
T1 chain 2: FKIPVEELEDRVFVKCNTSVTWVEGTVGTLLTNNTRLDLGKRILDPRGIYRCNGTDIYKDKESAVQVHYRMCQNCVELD
Test: BLI (Octet), IgG on AHC sensor, pH 6.0
recorded.metric: log10 of koff (log10 of the value in s⁻¹)
Hey, these are logged values: log10 of koff, s⁻¹ being the unit before logging.

{"binder": "SAD10320_P03_A09 (ADI-57380) (antibody, V domains shown, IgG; also called Ab98) VH: QVQLVQSGAEVKKPGASVKVSCKASGFNIKDYYMHWVRQAPGQRLEWMGWIDLENANTIYDAKFQGRVTITRDTSASTAYMELSSLRSEDTAVYYCARDAYGHVFYDVWGQGTLVTVSS VL: DIVMTQSPDSLAVSLGERATINCKSSQSLLNARTGKNYLAWYQQKPGQPPKLLIYWASTRESGVPDRFSGSGSGTDFTLTISSLQAEDVAVYYCKQSSHRRTFGGGTKVEIK", "log10 of koff": -2.54}
{"binder": "SAD10319_P01_F02 (ADI-48624) (antibody, V domains shown, IgG; also called Ab241) VH: QVQLVQSGAEVKKPGASVKVSCKASGYTFESYDMHWVRQAPGQRLEWMGWIDAGTGNTKYSQKFQGRVTITADESTSTAYMELSSLRSEDTAVYYCARDHYGHYFYDVWGQGTLVTVSS VL: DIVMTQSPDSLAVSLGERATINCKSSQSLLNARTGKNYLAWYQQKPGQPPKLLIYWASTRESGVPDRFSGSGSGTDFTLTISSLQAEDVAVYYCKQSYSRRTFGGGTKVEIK", "log10 of koff": -2.28}

Hi there! I need log10 of koff for each item below, if you can.
1. SAD10320_P04_E10 (ADI-48657) (antibody, V domains shown, IgG; also called Ab106) VH: QVQLVQSGAEVKKPGASVKVSCKASGFNIKDYYMHWVRQAPGQRPEWMGWIDLENANTIYDAKFQGRVTITRDTSASTAYMELSSLRSEDTAVYYCARDAYGHDFYDVWGQGTLVTVSS VL: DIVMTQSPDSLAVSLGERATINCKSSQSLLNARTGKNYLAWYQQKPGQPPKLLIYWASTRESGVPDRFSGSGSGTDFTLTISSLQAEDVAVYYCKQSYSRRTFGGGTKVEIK
2. SAD10319_P05_B03 (ADI-57400) (antibody, V domains shown, IgG; also called Ab127) VH: QVQLVQSGAEVKKPGASVKVSCKASGYTFESYVMHWVRQAPGQRLEWMGWIHSGTGNTDYSQKFQGRVTITRDTSASTAYMELSSLRSEDTAVYYCARDAYGHYFYDHWGQGTLVTVSS VL: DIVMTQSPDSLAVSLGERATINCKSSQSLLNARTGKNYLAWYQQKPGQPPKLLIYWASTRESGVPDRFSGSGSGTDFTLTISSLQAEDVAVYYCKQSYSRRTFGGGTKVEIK
3. SAD10319_P02_C05 (ADI-57315) (antibody, V domains shown, IgG; also called Ab257) VH: QVQLVQSGAEVKKPGASVKVSCKASGYTFTDYNMHWVRQAPGQRLEWMGWINPLTGTTKYSQKFQGRVTITRDTSASTAYMELSSLRSEDTAVYYCARDAYHHYFYDVWGQGTLVTVSS VL: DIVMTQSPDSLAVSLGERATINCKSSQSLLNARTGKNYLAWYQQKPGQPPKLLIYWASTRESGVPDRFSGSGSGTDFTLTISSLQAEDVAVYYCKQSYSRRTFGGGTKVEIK

Result:
1. -2.59
2. -1.46
3. -2.16
